The values you see were collected from patent US7851436.

Target: integrins αVβ3 and αVβ5
Experiment: inhibition of Ch-1 cell adhesion to coated PIIBNP by synthetic peptide (FIG. 3C)
readout-type: IC50

binder | readout-type | result
GRADNP [synthetic GRADNP peptide] | IC50 | 60 µM
GRGDNP [synthetic GRGDNP peptide] | IC50 | 10 µM
